Hello, the source for this data is patent US20050288323A1, in case you need it.

# assay-system: human histamine H3 receptor (Homo sapiens, UniProt Q9Y5N1)
# Construct: One microgram of supercoiled H3 receptor cDNA was added to the cells and mixed; expressed in transfected cells; membranes
# Sequence (Q9Y5N1 whole entry): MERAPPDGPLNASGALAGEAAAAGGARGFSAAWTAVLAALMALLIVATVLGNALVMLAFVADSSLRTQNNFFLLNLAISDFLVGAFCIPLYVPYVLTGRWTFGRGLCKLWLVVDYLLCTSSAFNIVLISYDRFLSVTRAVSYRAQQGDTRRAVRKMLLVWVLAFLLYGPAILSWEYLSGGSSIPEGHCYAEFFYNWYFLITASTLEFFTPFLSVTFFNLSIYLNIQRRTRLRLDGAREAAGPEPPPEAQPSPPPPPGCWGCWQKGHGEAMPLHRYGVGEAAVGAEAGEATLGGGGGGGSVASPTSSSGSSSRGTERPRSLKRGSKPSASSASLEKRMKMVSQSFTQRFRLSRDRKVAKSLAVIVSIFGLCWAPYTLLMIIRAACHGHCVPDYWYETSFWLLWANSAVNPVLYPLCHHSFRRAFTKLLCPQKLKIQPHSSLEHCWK
# assay-text: [3H]-N-methylhistamine binding
# study-conditions: [3H]-N-methylhistamine 0.8 nM, membranes of H3 receptor-expressing SK-N-MC cells
recorded-metric: Ki
Remember to follow the number with its unit.

Below are worked cases with known answers.
INSERT INTO measurements (compound, assay_system, assay_result) VALUES
  ('Nc1ccc(Sc2ccc([C@@H]3CCC[C@@H]4CCCN43)cc2)cc1 (racemic)', 'human histamine H3 receptor (Homo sapiens, UniProt Q9Y5N1)', '75 nM'),
  ('c1cc([C@H]2CC3CCCCN3C2)ccc1OCCCN1CCCCC1 (mixture of isomers)', 'human histamine H3 receptor (Homo sapiens, UniProt Q9Y5N1)', '0.2 nM'),
  ('CN1CCCCC1CCOc1ccc([C@H]2CC[C@H]3CCCCN32)cc1 (mixture of isomers)', 'human histamine H3 receptor (Homo sapiens, UniProt Q9Y5N1)', '7 nM'),
  ('O=C(CCN1CCCCC1)Nc1ccc([C@@H]2CC[C@@H]3CCCCN32)cc1 (relative stereo)', 'human histamine H3 receptor (Homo sapiens, UniProt Q9Y5N1)', '10 nM');

Fill blank: measured Ki of the compound C(#CCN1CCCCC1)COc1ccc([C@H]2CC[C@H]3CCCCN32)cc1 (relative stereo) is ____.
1.8 nM

###

Listing of recorded pKi by entry.
# assay-system: human histamine H3 receptor (Homo sapiens)
# Construct: One microgram of supercoiled H3 receptor cDNA was added to the cells and mixed; expressed in transfected cells; membranes
# assay-text: [3H]-N-methylhistamine binding
# study-conditions: [3H]-N-methylhistamine 0.8 nM, membranes of H3 receptor-expressing SK-N-MC cells
On this scale, pKi is minus log10 of a concentration expressed in M (mol/L).

Below are worked cases with known answers.
INSERT INTO results (compound, assay_system, assay_result) VALUES
  ('ClCCCCOc1ccc([C@@H]2CCC[C@@H]3CCCN32)cc1 (racemic)', 'human histamine H3 receptor (Homo sapiens)', 6.56),
  ('CS(=O)(=O)N(c1ccc([C@@H]2CC[C@@H]3CCCCN32)cc1)S(C)(=O)=O (relative stereo)', 'human histamine H3 receptor (Homo sapiens)', 6.10);

Fill blank: measured pKi of the compound FC(F)(F)Oc1ccc(-c2ccc([C@H]3CC[C@H]4CCCCN43)cc2)cc1 (relative stereo) is ____.
5.91

###

# assay-system: human histamine H3 receptor (Homo sapiens, UniProt Q9Y5N1)
# Construct: One microgram of supercoiled H3 receptor cDNA was added to the cells and mixed; expressed in transfected cells; membranes
# assay-text: [3H]-N-methylhistamine binding
# study-conditions: Table 1; [3H]-N-methylhistamine binding
Note to self: use met only for Ki readings below 0.6 µM; a reading exactly at 0.6 µM still gets not met.

Previously resolved entries follow.
INSERT INTO measurements (compound, group_label) VALUES
  ('c1ccc(Oc2ccc([C@H]3CC[C@H]4CCCCN43)cc2)cc1 (racemic) [Example 11]', 'met'),
  ('c1ccc(-c2ccc([C@H]3CC[C@H]4CCCCN43)cc2)cc1 (racemic) [Example 3]', 'not met');

Dear reviewer, please state whether c1cc([C@H]2CC[C@H]3CCCCN32)ccc1OCCN1CCCCC1 (racemic) [Example 16] has Ki strictly beneath 0.6 µM.
met

Next entry: CN(C)CCCOc1ccc([C@H]2CC[C@H]3CCCCN32)cc1 (racemic) [Example 17]
met

Next entry: Brc1ccc([C@@H]2CC[C@H]3CCCCN32)cc1 (racemic) [Example 2]
not met

###

# assay-system: human histamine H3 receptor (Homo sapiens)
# Construct: One microgram of supercoiled H3 receptor cDNA was added to the cells and mixed; expressed in transfected cells; membranes
# assay-text: [3H]-N-methylhistamine binding
# study-conditions: [3H]-N-methylhistamine 0.8 nM, membranes of H3 receptor-expressing SK-N-MC cells
recorded-metric: Ki (nM)
Please give a number only; it is taken to be in nM.

INSERT INTO measurements (compound, assay_system, recorded_metric, measure_unit, assay_result) VALUES
  ('c1cc(Sc2ccc(C3CCC4CCCCN43)cc2)ccn1 (stereo not shown) [Example 136]', 'human histamine H3 receptor (Homo sapiens)', 'Ki', 'nM', 7.5),
  ('CS(=O)(=O)Nc1cccc(COc2ccc([C@H]3CC[C@H]4CCCCN43)cc2)c1 (racemic) [Example 83]', 'human histamine H3 receptor (Homo sapiens)', 'Ki', 'nM', 308),
  ('O=S(=O)(Nc1ccc([C@@H]2CC[C@@H]3CCCCN32)cc1)C1CCCNC1 (relative stereo) [Example 117]', 'human histamine H3 receptor (Homo sapiens)', 'Ki', 'nM', 4),
  ('CS(=O)(=O)Nc1cccc(-c2ccc([C@H]3CC[C@H]4CCCCN43)cc2)c1 [Example 55]', 'human histamine H3 receptor (Homo sapiens)', 'Ki', 'nM', 320),
  ('CC(C)(C)OC(=O)N1CCC(Nc2ccc([C@H]3CC[C@H]4CCCCN43)cc2)CC1 (racemic) [Example 100]', 'human histamine H3 receptor (Homo sapiens)', 'Ki', 'nM', 517);

Fill blank: measured Ki of the compound CS(=O)(=O)N(c1cccc(COc2ccc([C@H]3CC[C@H]4CCCCN43)cc2)c1)S(C)(=O)=O (racemic) [Example 82] is ____.
128

Next entry: Nc1ccc(Sc2ccc([C@H]3CC[C@H]4CCCCN43)cc2)cc1 (racemic) [Example 40]
62

Next entry: c1cc(Sc2ccc([C@@H]3CCC[C@@H]4CCCN43)cc2)ccn1 (racemic) [Example 26]
35

Next entry: C(=C\c1ccc([C@H]2CC[C@H]3CCCCN32)cc1)/c1ccncc1 (racemic) [Example 73]
65

Next entry: O=S(=O)(CCN1CCCCC1)Nc1ccc([C@H]2CC[C@H]3CCCCN32)cc1 (racemic) [Example 120]
11

###

Listing of recorded pKi by entry.
# assay-system: human histamine H3 receptor (Homo sapiens)
# Construct: One microgram of supercoiled H3 receptor cDNA was added to the cells and mixed; expressed in transfected cells; membranes
# assay-text: [3H]-N-methylhistamine binding
# study-conditions: [3H]-N-methylhistamine 0.8 nM, membranes of H3 receptor-expressing SK-N-MC cells
On this scale, pKi is minus log10 of a concentration expressed in M (mol/L).

INSERT INTO results (compound, assay_result) VALUES
  ('c1ccc2c(Oc3ccc([C@H]4CC[C@H]5CCCCN54)cc3)ncnc2c1 (racemic)', 7.04),
  ('CN(C)CCNc1cccc([C@H]2CC[C@H]3CCCCN32)c1 (racemic)', 7.12),
  ('O=C(CCCN1CCCCC1)Nc1ccc([C@@H]2CC[C@@H]3CCCCN32)cc1 (relative stereo)', 8.52),
  ('O=Cc1ccc([C@H]2CC[C@H]3CCCCN32)cc1 (racemic)', 6.23),
  ('O=C(N1CCCCC1CCOc1ccc([C@H]2CC[C@H]3CCCCN32)cc1)C(F)(F)F (mixture of isomers)', 7.15),
  ('O=C(c1ccc(Cl)cc1)c1ccc([C@H]2CC[C@H]3CCCCN32)cc1 (racemic)', 6.43);

Fill blank: measured pKi of the compound CN(C(=O)CCCCN1CCCCC1)c1ccc([C@H]2CC[C@H]3CCCCN32)cc1 (racemic) is ____.
7.20

Next entry: N=C(N)N1CCCCC1CCOc1ccc([C@H]2CC[C@H]3CCCCN32)cc1 (mixture of isomers)
7.10

Next entry: c1ccc(N2CCN(Cc3ccc([C@H]4CC[C@H]5CCCCN54)cc3)CC2)cc1 (racemic)
7.19

Next entry: CN(C)c1ccc([C@@H]2CC[C@@H]3CCCCN32)cc1 (relative stereo)
6.42

Next entry: c1cc([C@@H]2CCC[C@@H]3CCCN32)ccc1OCCCCN1CCCCC1 (racemic)
9.15

Next entry: c1ccc([C@H]2C[C@@H]3CCCCN3C2)c(OCCCN2CCCCC2)c1 (relative stereo)
6.50

Next entry: c1cc(OCCCN2CCCCC2)cc([C@H]2C[C@@H]3CCCCN3C2)c1 (racemic)
9.52

Next entry: CS(=O)(=O)Nc1ccc(Sc2ccc([C@@H]3CCC[C@@H]4CCCN43)cc2)cc1 (racemic)
7.12

Next entry: Nc1ccc([C@@H]2CC[C@@H]3CCCCN32)cc1 (relative stereo)
7.49

Next entry: CS(=O)(=O)Nc1ccc(Oc2ccc([C@H]3CC[C@H]4CCCCN43)cc2)cc1 (racemic)
7.34

Next entry: O=[N+]([O-])c1ccc(Sc2ccc([C@@H]3CCC[C@@H]4CCCN43)cc2)cc1 (racemic)
6.49

###

# assay-system: human histamine H3 receptor (Homo sapiens, UniProt Q9Y5N1)
# Construct: One microgram of supercoiled H3 receptor cDNA was added to the cells and mixed; expressed in transfected cells; membranes
# assay-text: [3H]-N-methylhistamine binding
# study-conditions: [3H]-N-methylhistamine 0.8 nM, membranes of H3 receptor-expressing SK-N-MC cells
recorded-metric: Ki (nM)
Please give a number only; it is taken to be in nM.

Below are worked cases with known answers.
INSERT INTO results (molecule, measure_unit, assay_result) VALUES
  ('C=CC(=O)Nc1ccc([C@@H]2CC[C@@H]3CCCCN32)cc1 (relative stereo) [Example 107]', 'nM', 327),
  ('Brc1ccc([C@H]2CC[C@H]3CCCCN32)cc1 (racemic) [Example 1]', 'nM', 325),
  ('O=C(CCCCN1CCCCC1)Nc1ccc([C@@H]2CC[C@@H]3CCCCN32)cc1 (relative stereo) [Example 112]', 'nM', 2.1),
  ('c1cc([C@@H]2CC[C@@H]3CCCCN32)ccc1NCCCCCN1CCCCC1 (relative stereo) [Example 115]', 'nM', 0.7),
  ('C=CC(=O)N(C)c1ccc([C@@H]2CC[C@@H]3CCCCN32)cc1 (relative stereo) [Example 108]', 'nM', 2770);

Fill blank: measured Ki of the molecule NCc1ccc(Sc2ccc([C@H]3CC[C@H]4CCCCN43)cc2)cc1 (racemic) [Example 44] is ____.
9

Next entry: OC(c1ccc(Cl)cc1)c1ccc(C2CCC3CCCCN32)cc1 (mixture of isomers) [Example 123]
803

Next entry: CN(CCCCCN1CCCCC1)c1ccc([C@@H]2CC[C@@H]3CCCCN32)cc1 (relative stereo) [Example 114]
9

Next entry: CN(c1ccc([C@@H]2CC[C@@H]3CCCCN32)cc1)S(=O)(=O)C1CCCNC1 (relative stereo) [Example 118]
61

Next entry: CN(C)CCCOc1ccc([C@H]2CC[C@H]3CCCCN32)cc1 (racemic) [Example 17]
9.5
